Molecular target: PRMT5-MEP50 enzyme complex (Homo sapiens)
Construct: Full-length (FL)-PRMT5-MEP50 enzyme complex (recombinant proteins from baculovirus-transfected Sf21 cells: FL-PRMT5; MW=73837 kDa and FL-MEP50; MW=38614); made in house; host or cells: baculovirus-transfected Sf21 cells
Assay: PRMT5-MEP50 Enzyme Methylation Assay (Version B)
Format: biochemical
Conditions: only one EC50 shown: 4 parameters single site sigmoidal model; 30 min pre-incubation; read-out: Enzyme Methylation Assay Version B (EC50)
Description: PRMT5-MEP50 Enzyme Methylation Assay (Version B) PRMT5-MEP50 biochemical assay is a direct measurement of the methylation activity of the enzyme complex on a short peptide substrate derived from the N-terminus of H4 histone. Methylation experiment was performed with recombinant PRMT5-MEP50 protein complex. The assessment of inhibitory effect (EC50) of small molecules was measured by the effectiveness of the compounds to inhibit this reaction. […]
PROPERTY MEASURED: log10 EC50 (log10 of the value in nM)
Log10 applied to EC50; unit prior to transform: nM.

Cc1ccc2c(c1)CN(C1CCN(C(=O)c3ccc(OCC(F)(F)F)nc3)CC1O)CC2 (single isomer, unassigned) [Example 47]
3.07

Provide only the value of recorded log10 EC50 for CC(=O)N1CCC(Nc2cc(C(=O)N3CCC(N4Cc5ccccc5C(F)(F)C4)C(O)C3)c(F)cn2)CC1 (single isomer, unassigned) [Example 27]
2.91

Provide only the value of recorded log10 EC50 for CC(C)(C#N)c1ccc(C(=O)N2CC[C@@H](N3CCc4ccccc4C3)[C@H](O)C2)cn1 (single isomer, unassigned)
3.19

Provide only the value of recorded log10 EC50 for O=C(c1ccc(-c2ncnn2C2CC2)cc1)N1CC[C@@H](N2CCc3ccccc3C2)[C@H](O)C1
3.41

Provide only the value of recorded log10 EC50 for O=C(c1ccc(OCC(F)(F)F)nc1)N1CCC(N2Cc3ccccc3C(F)(F)C2)C(O)C1 (single isomer, unassigned) [Example 29]
3.13

Provide only the value of recorded log10 EC50 for O=C(c1ccn(CC(F)(F)F)c(=O)c1)N1CC[C@@H](N2CCc3ccccc3C2)[C@H](O)C1
3.33

Provide only the value of recorded log10 EC50 for O=C(c1ccc(OCC(F)(F)F)nc1)N1CCC(N2Cc3ccccc3C(F)(F)C2)C(O)C1 (single isomer, unassigned) [Example 26]
4.18

Provide only the value of recorded log10 EC50 for CC(=O)N1CCC(Nc2cc(C(=O)N3CCC(N4Cc5ccccc5C(F)(F)C4)C(O)C3)c(F)cn2)CC1 (single isomer, unassigned) [Example 24]
3.75

Provide only the value of recorded log10 EC50 for Cc1ccc2c(c1)CCN([C@@H]1CCN(C(=O)c3ccc(OCC(F)(F)F)nc3)C[C@H]1O)C2
3.15

Provide only the value of recorded log10 EC50 for CC(=O)N1CCC(Nc2cc(C(=O)N3C[C@H]4C[C@@H]3C(O)C4N3CCc4ccccc4C3)c(F)cn2)CC1 (single isomer, unassigned)
3.68

Provide only the value of recorded log10 EC50 for Cc1ccc2c(c1)CN(C1CCN(C(=O)c3ccc(OCC(F)(F)F)nc3)CC1O)CC2 (single isomer, unassigned) [Example 48]
4.25

###

Molecular target: PRMT5 (Homo sapiens)
Construct: seeded with 4000 MCF-7 cells in 30 μl media; endogenous in cells
Assay: PRMT5 Cell Target Engagement (TE) Assay
Conditions: MCF-7 cells, treated for 3 days, symmetric dimethylation of arginine (SDMA) by high content imaging
Known pEC50 of a selection of compounds
Conceptually, pEC50 converts a concentration in mol/L into minus its log10.

Known results for compounds:
CC(=O)N1CCC(Nc2nccc(C(=O)N3CC[C@@H](N4CCc5ccccc5C4)[C@H](O)C3)c2F)CC1 [Example 19]
5.01
CN1CCC(Nc2cc(C(=O)N3CC[C@H](N4CCc5ccccc5C4)[C@@H](O)C3)c(F)cn2)CC1=O (some centres unmarked) [Example 112]
7.30
Cn1nccc1-c1cnc2nc(C(=O)N3CC[C@H](N4CCc5ccccc5C4)[C@@H](O)C3)cn2c1 [Example 57]
8.06
O=C(c1ccc(OCC(F)(F)F)nc1)N1CC[C@H](N2CCc3ccccc3C2)[C@@H](O)C1 [Example 43]
6.36
Cc1cc(Br)c2nc(C(=O)N3CC[C@H](N4CCc5ccccc5C4)[C@@H](O)C3)cn2c1 [Example 134]
7.37

Provide only the value of recorded pEC50 for O=C(c1ccc(C(=O)N2C3CCC2COC3)cc1)N1CC[C@H](N2CCc3c(F)cccc3C2)[C@@H](O)C1 [Example 37]
5.73

Provide only the value of recorded pEC50 for Cc1c(Br)cnc2nc(C(=O)N3CC[C@H](N4CCc5ccccc5C4)[C@@H](O)C3)cn12 [Example 66]
5.74

###

Molecular target: PRMT5 (Homo sapiens, UniProt O14744)
Construct: seeded with 4000 MCF-7 cells in 30 μl media; endogenous in cells
Sequence (O14744 whole entry): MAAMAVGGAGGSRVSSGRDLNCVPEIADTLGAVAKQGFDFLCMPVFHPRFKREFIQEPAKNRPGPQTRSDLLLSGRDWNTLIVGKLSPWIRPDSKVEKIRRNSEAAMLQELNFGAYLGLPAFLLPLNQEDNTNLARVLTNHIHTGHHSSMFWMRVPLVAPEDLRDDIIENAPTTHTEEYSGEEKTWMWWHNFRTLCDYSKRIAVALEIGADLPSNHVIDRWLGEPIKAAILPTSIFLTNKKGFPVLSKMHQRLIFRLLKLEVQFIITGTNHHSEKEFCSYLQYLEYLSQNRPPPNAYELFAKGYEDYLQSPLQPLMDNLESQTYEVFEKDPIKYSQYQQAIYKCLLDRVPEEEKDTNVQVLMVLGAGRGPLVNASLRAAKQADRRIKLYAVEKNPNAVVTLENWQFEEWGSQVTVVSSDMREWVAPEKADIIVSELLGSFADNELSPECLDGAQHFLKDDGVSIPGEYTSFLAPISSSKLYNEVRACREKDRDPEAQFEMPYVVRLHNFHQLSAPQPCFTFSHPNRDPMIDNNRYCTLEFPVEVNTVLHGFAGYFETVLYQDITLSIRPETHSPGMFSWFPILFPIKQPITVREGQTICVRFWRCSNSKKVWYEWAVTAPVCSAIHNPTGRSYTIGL
Sequence (Q9BQA1 whole entry partner): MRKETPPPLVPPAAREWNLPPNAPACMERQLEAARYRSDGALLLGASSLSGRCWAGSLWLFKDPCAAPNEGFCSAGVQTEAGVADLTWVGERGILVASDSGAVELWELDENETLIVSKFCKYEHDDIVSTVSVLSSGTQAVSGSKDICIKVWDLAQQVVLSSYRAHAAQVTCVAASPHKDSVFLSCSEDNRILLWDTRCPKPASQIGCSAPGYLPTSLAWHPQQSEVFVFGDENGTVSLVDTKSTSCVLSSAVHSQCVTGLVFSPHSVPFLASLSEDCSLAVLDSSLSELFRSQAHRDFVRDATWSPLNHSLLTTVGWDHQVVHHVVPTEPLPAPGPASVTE
Assay: PRMT5 Cell Target Engagement (TE) Assay
Conditions: MCF-7 cells, treated for 3 days, symmetric dimethylation of arginine (SDMA) by high content imaging
Known EC50 of a selection of molecules
# output: bare number, implied unit nM

O=C(c1cn2cc(Br)cc(Br)c2n1)N1CC[C@H](N2CCc3ccccc3C2)[C@@H](O)C1
8.6
CCOC(=O)N1CCC(Nc2cc(C(=O)N3CC[C@H](N4CCc5ccccc5C4)[C@@H](O)C3)c(F)cn2)CC1
6.2
O=C(c1ccc(C(=O)N2C3CCC2COC3)cc1)N1CC[C@H](N2CCc3ccccc3C2)[C@@H](O)C1
68
CC(=O)N1CCC(Nc2nccc(C(=O)N3CC[C@@H](N4CCc5ccccc5C4)[C@H](O)C3)c2F)C(F)(F)C1 (single isomer, unassigned) [Example 16]
5730
COC(C)c1cc(Br)cn2cc(C(=O)N3CC[C@H](N4CCc5ccccc5C4)[C@@H](O)C3)nc12 (single isomer, unassigned)
2.2

Provide only the value of recorded EC50 for CO[C@H](C)c1cc(C)cn2cc(C(=O)N3CC[C@H](N4CCc5ccccc5C4)[C@@H](O)C3)nc12
4.4

###

Molecular target: PRMT5 (Homo sapiens, UniProt O14744)
Construct: seeded with 4000 MCF-7 cells in 30 μl media; endogenous in cells
Assay: PRMT5 Cell Target Engagement (TE) Assay
Conditions: MCF-7 cells, treated for 3 days, symmetric dimethylation of arginine (SDMA) by high content imaging
Known pEC50 of a selection of compounds
Conceptually, pEC50 converts a concentration in mol/L into minus its log10.

CC(C)N1CCNc2cc(C(=O)N3CC[C@H](N4CCc5ccccc5C4)[C@@H](O)C3)ccc2C1=O [Example 62]
7.68

Now for another entry.
Fill in: pEC50 on PRMT5 (Homo sapiens, UniProt O14744), entry Cc1nc2nc(C(=O)N3CC[C@H](N4CCc5ccccc5C4)[C@@H](O)C3)cn2cc1Br [Example 67]
7.31

###

Known log10 of EC50 of a selection of compounds
Biological target: PRMT5 (Homo sapiens, UniProt O14744)
Construct: seeded with 4000 MCF-7 cells in 30 μl media; endogenous in cells
Assay: PRMT5 Cell Target Engagement (TE) Assay
Conditions: MCF-7 cells, treated for 3 days, symmetric dimethylation of arginine (SDMA) by high content imaging
Log10 applied to EC50; unit prior to transform: nM.

Known results for compounds:
CC(C)c1nc2nc(C(=O)N3CC[C@H](N4CCc5ccccc5C4)[C@@H](O)C3)cn2cc1Br
0.69
CC1OC(=O)Nc2cc(C(=O)N3CC[C@H](N4CCc5ccccc5C4)[C@@H](O)C3)ccc21 (single isomer, unassigned) [Example 91]
3.88
CC(=O)N1CCC(Nc2cc(C(=O)N3CCC(N4CCc5ccccc5C4)C(O)C3(C)C)ccn2)CC1 (single isomer, unassigned) [Example 23]
3.67
Cc1cc(Br)cn2cc(C(=O)N3CC[C@H](N4CCc5ccccc5C4)[C@@H](O)C3)nc12
1.08

Fill in: log10 of EC50 on PRMT5 (Homo sapiens, UniProt O14744), entry O=C(c1cn2cc(Cl)cc(Br)c2n1)N1CC[C@H](N2CCc3ccccc3C2)[C@@H](O)C1
1.23

Fill in: log10 of EC50 on PRMT5 (Homo sapiens, UniProt O14744), entry CC1OC(=O)Nc2cc(C(=O)N3CC[C@H](N4CCc5ccccc5C4)[C@@H](O)C3)ccc21 (single isomer, unassigned) [Example 94]
3.66

Fill in: log10 of EC50 on PRMT5 (Homo sapiens, UniProt O14744), entry CCC1Oc2ccc(C(=O)N3CC[C@H](N4CCc5ccccc5C4)[C@@H](O)C3)cc2NC1=O (single isomer, unassigned) [Example 10]
2.08

Fill in: log10 of EC50 on PRMT5 (Homo sapiens, UniProt O14744), entry CC(=O)N1CCC(Nc2cc(C(=O)N3CC[C@H](N4CCc5ccccc5C4)[C@@H](O)C3)c(F)cn2)C(F)(F)C1 (single isomer, unassigned) [Example 87]
1.77

Fill in: log10 of EC50 on PRMT5 (Homo sapiens, UniProt O14744), entry CC1CC1c1cnc2nc(C(=O)N3CCC(N4CCc5ccccc5C4)[C@@H](O)C3)cn2c1 (single isomer, unassigned) [Example 130]
0.58

Fill in: log10 of EC50 on PRMT5 (Homo sapiens, UniProt O14744), entry CC(=O)N1CC[C@@H](CNc2cc(C(=O)N3CC[C@H](N4CCc5ccccc5C4)[C@@H](O)C3)c(F)cn2)C1
1.23
